# Study Target: Mitogen-activated protein kinase kinase kinase kinase 1 (Homo sapiens)
# Measurement Notes: Inhibition of HPK1 (unknown origin) preincubated for 30 mins with compound followed by Biotin-SLP-76 substrate in presence of ATP incubated for 60 mins measured after 1 hr by TR-FRET based HTRF enzymatic assay
Measured Quantity: Ki (nM)
Just the number in nM, nothing appended.

[[record]]
compound = "CN(C)C(=O)c1c(N)ccc(-c2cnc3c(c2Cl)[C@]2(CC[C@@]4(CCCCNC4=O)C2)CN3)c1F"
recorded_value = 7.2


Entry CN(C)C(=O)c1c(N)ccc(-c2cnc3c(c2Cl)[C@]2(CC[C@@]4(CCCNC4=O)C2)CN3)c1F ; Ki = 6.5

----------
# Study Target: Mitogen-activated protein kinase kinase kinase kinase 1 (Homo sapiens, UniProt Q92918)
# Sequence (Q92918 whole entry): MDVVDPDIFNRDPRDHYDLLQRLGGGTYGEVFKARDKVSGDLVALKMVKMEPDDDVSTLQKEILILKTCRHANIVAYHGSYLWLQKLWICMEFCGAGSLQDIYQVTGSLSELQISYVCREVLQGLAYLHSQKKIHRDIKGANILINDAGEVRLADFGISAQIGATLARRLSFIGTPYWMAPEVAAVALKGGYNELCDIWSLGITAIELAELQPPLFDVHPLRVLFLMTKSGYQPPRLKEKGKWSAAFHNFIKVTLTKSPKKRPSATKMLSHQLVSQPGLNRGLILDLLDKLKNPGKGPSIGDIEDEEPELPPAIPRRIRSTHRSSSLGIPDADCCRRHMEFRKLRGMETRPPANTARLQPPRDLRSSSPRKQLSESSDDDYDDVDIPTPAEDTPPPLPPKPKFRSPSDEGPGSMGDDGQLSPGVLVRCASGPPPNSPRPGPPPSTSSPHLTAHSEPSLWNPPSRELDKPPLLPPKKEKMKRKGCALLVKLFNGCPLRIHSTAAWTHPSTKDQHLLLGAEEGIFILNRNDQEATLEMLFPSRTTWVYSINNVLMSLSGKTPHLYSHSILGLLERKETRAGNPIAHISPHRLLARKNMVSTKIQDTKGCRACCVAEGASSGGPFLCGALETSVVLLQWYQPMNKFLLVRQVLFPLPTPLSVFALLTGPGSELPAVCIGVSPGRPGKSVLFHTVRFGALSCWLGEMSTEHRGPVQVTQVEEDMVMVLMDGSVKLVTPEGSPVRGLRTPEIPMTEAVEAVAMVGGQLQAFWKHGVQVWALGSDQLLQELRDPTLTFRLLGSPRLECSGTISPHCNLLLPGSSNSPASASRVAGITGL
# Measurement Notes: Inhibition of HPK1 in human Jurkat E6.1 cells assessed as SLP76 phosphorylation incubated for 30 mins followed by anti-CD3, biotinylated anti-SLP76 and TMB substrate addition measured after 3 hrs by ELISA assay
Note to self: use y only for IC50 readings below 2000 nM; a reading exactly at 2000 nM still gets n.

Solved entries:
[[record]]
compound = "CN(C)C(=O)c1c(N)ccc(-c2cnc3c(c2Cl)[C@]2(CC[C@H](C(N)=O)C2)CN3)c1F (racemic)"
category_label = "n"

[[record]]
compound = "CN(C)C(=O)c1c(N)ccc(-c2cnc3c(c2Cl)[C@]2(CC[C@H](O)C2)CN3)c1F (racemic)"
category_label = "n"


Strictly below 2000 nM: is that where IC50 of CN(C)C(=O)c1c(N)ccc(-c2cnc3c(c2Cl)[C@@]2(CC[C@@](C)(C(N)=O)C2)CN3)c1F sits?
n

Strictly below 2000 nM: is that where IC50 of CN(C)C(=O)c1c(N)ccc(-c2cnc3c(c2Cl)[C@]2(CC[C@H](c4ncn[nH]4)C2)CN3)c1F (racemic) sits?
n

Strictly below 2000 nM: is that where IC50 of CN(C)C(=O)c1c(N)ccc(-c2cnc3c(c2Cl)[C@]2(CC[C@](C)(C#N)C2)CN3)c1F (racemic) sits?
y

Strictly below 2000 nM: is that where IC50 of CN(C)C(=O)c1c(N)ccc(-c2cnc3c(c2Cl)[C@]2(CC[C@](C)(C(N)=O)C2)CN3)c1F sits?
y

Strictly below 2000 nM: is that where IC50 of CN(C)C(=O)c1c(N)ccc(-c2cnc3c(c2Cl)[C@]2(CC[C@@]4(CCCCNC4=O)C2)CN3)c1F sits?
y

Strictly below 2000 nM: is that where IC50 of CN(C)C(=O)c1c(N)ccc(-c2cnc3c(c2Cl)[C@]2(CC[C@](C)(C#N)CC2)CN3)c1F sits?
n

Strictly below 2000 nM: is that where IC50 of CN(C)C(=O)c1c(N)ccc(-c2cnc3c(c2Cl)[C@]2(CC[C@](C)(C(N)=O)C2)CN3)c1F (racemic) sits?
y

----------
Measured Papp A→B at 10 µM of individual entries
# Measurement Notes: Apparent permeability across apical to basolateral side in dog MDCK1 cells at 10 uM by LC-MS/MS analysis
# Assay type: ADME, cell-based, Canis lupus familiaris
# Measurement Setup: MDCK
Just the number in ×10⁻⁶ cm/s, nothing appended.

Some entries whose results are on file:
[[record]]
compound = "CN(C)C(=O)c1c(N)ccc(-c2cnc3c(c2Cl)[C@]2(CC[C@](C)(C#N)CC2)CN3)c1F"
recorded_value = 26

[[record]]
compound = "CN(C)C(=O)c1c(N)ccc(-c2cnc3c(c2Cl)[C@]2(CC[C@](C)(C#N)C2)CN3)c1F (racemic)"
recorded_value = 21

[[record]]
compound = "CN(C)C(=O)c1c(N)ccc(-c2cnc3c(c2Cl)[C@]2(CC[C@](C)(O)C2)CN3)c1F (racemic)"
recorded_value = 4.1

[[record]]
compound = "CN(C)C(=O)c1c(N)ccc(-c2cnc3c(c2Cl)[C@]2(CC[C@](C)(O)CC2)CN3)c1F"
recorded_value = 5.7

[[record]]
compound = "CN(C)C(=O)c1c(N)ccc(-c2cnc3c(c2Cl)[C@]2(CC[C@H](O)C2)CN3)c1F (racemic)"
recorded_value = 5


Entry CN(C)C(=O)c1c(N)ccc(-c2cnc3c(c2Cl)[C@]2(CC[C@@]4(CCCCNC4=O)C2)CN3)c1F ; Papp A→B at 10 µM = 6.5

Entry CN(C)C(=O)c1c(N)ccc(-c2cnc3c(c2Cl)[C@]2(CC[C@](C)(C(N)=O)C2)CN3)c1F (racemic) ; Papp A→B at 10 µM = 0.3

----------
# Measurement Notes: Metabolic stability in mouse liver microsomes assessed as intrinsic clearance followed by substrate addition incubated for 30 mins by LC-MS/MS analysis
# Assay type: ADME, Microsome
# Measurement Setup: read-out: CLH
Measured predicted hepatic clearance of individual entries
Just the number in mL/min/kg, nothing appended.

Some entries whose results are on file:
[[record]]
compound = "CCc1c[nH]c2ncc(-c3cccc(C(=O)N(C)C)c3)cc12"
recorded_value = 84

[[record]]
compound = "CCc1c[nH]c2ncc(-c3ccc(N)c(C(=O)N(C)C)n3)cc12"
recorded_value = 81

[[record]]
compound = "CCc1c[nH]c2ncc(-c3ccc(N)c(C(=O)N(C)C)c3F)cc12"
recorded_value = 80


Entry CCc1c[nH]c2ncc(-c3ccc(N)c(C(=O)N(C)C)c3)cc12 ; predicted hepatic clearance = 80

----------
# Measurement Notes: Metabolic stability in human hepatocytes assessed as hepatic clearance at 1 uM measured upto 3 hrs by LC-MS/MS analysis
# Assay type: ADME, cell-based, Hepatocyte
Measured Quantity: CLhep predicted at 1 µM (mL/min/kg)
Just the number in mL/min/kg, nothing appended.

Entry CN(C)C(=O)c1c(N)ccc(-c2cnc3c(c2Cl)[C@]2(CC[C@](C)(C(N)=O)C2)CN3)c1F ; CLhep predicted at 1 µM = 9.5

----------
# Study Target: Mitogen-activated protein kinase kinase kinase kinase 1 (Homo sapiens, UniProt Q92918)
# Measurement Notes: Inhibition of HPK1 (unknown origin) followed by anti-GST antibody incubated for 60 mins measured after 1 hr by TR-FRET based LanthaScreen Eu-Kinase binding assay
Measured Quantity: Ki
Reply with the number and its unit after it.

Some entries whose results are on file:
[[record]]
compound = "CN(C)C(=O)c1c(N)ccc(-c2cnc3c(c2Cl)[C@]2(CC[C@H](c4ncn[nH]4)C2)CN3)c1F (racemic)"
measured_quantity = "Ki"
recorded_value = "14 nM"

[[record]]
compound = "Cc1c(-c2ccc(N)c(C(=O)N(C)C)c2F)cnc2c1C1(CC1)CN2"
measured_quantity = "Ki"
recorded_value = "43 nM"

[[record]]
compound = "CN(C)C(=O)c1c(N)ccc(-c2cnc3c(c2Cl)[C@]2(CC[C@](C)(C#N)C2)CN3)c1F (racemic)"
measured_quantity = "Ki"
recorded_value = "11 nM"

[[record]]
compound = "CN(C)C(=O)c1c(N)ccc(-c2cnc3c(c2Cl)[C@]2(CC[C@H](C(N)=O)C2)CN3)c1F (racemic)"
measured_quantity = "Ki"
recorded_value = "1.8 nM"


CCc1c[nH]c2ncc(-c3ccc(N)c(C(=O)N(C)C)n3)cc12 tested on Mitogen-activated protein kinase kinase kinase kinase 1 (Homo sapiens, UniProt Q92918) gave Ki: 3.3 nM

CN(C)C(=O)c1c(N)ccc(-c2cnc3c(c2Cl)[C@@]2(CC[C@@](C)(C(N)=O)C2)CN3)c1F tested on Mitogen-activated protein kinase kinase kinase kinase 1 (Homo sapiens, UniProt Q92918) gave Ki: 85 nM

----------
Measured predicted hepatic clearance of individual entries
# Measurement Notes: Metabolic stability in human liver microsomes assessed as intrinsic clearance followed by substrate addition incubated for 30 mins by LC-MS/MS analysis
# Assay type: ADME, Microsome
# Measurement Setup: read-out: CLH

Some entries whose results are on file:
[[record]]
compound = "CCc1c[nH]c2ncc(-c3ccc(N)c(C(=O)N(C)C)c3)cc12"
recorded_value = "12 mL/min/kg"

[[record]]
compound = "CCc1c[nH]c2ncc(-c3ccc(N)c(C(=O)N(C)C)c3F)cc12"
recorded_value = "16 mL/min/kg"

[[record]]
compound = "CCc1c[nH]c2ncc(-c3cccc(C(=O)N(C)C)c3)cc12"
recorded_value = "18 mL/min/kg"


Note: attention shifts to another entry.
Entry CCc1c[nH]c2ncc(-c3ccc(N)c(C(=O)N(C)C)n3)cc12 ; predicted hepatic clearance = 17 mL/min/kg

----------
# Measurement Notes: Metabolic stability in rat liver microsomes assessed as intrinsic clearance followed by substrate addition incubated for 30 mins by LC-MS/MS analysis
# Type: ADME, Microsome
# Measurement Setup: read-out: CLH
Measured Quantity: predicted hepatic clearance (mL/min/kg)
Just the number in mL/min/kg, nothing appended.

[[record]]
compound = "CCc1c[nH]c2ncc(-c3ccc(N)c(C(=O)N(C)C)c3)cc12"
recorded_value = 25


Entry CCc1c[nH]c2ncc(-c3cccc(C(=O)N(C)C)c3)cc12 ; predicted hepatic clearance = 43

Entry CCc1c[nH]c2ncc(-c3ccc(N)c(C(=O)N(C)C)n3)cc12 ; predicted hepatic clearance = 28

Entry CCc1c[nH]c2ncc(-c3ccc(N)c(C(=O)N(C)C)c3F)cc12 ; predicted hepatic clearance = 37

Cited source for all entries: ChEMBL document CHEMBL5038654
